This collection of values is drawn from patent US7205305B2.

# System: IL-1 production in whole blood
# test method notes: Inhibition of IL-1 production in LPS-stimulated whole blood ("WB")
# Assay type: cell-based, human
# condition summary: Homo sapiens
reported endpoint: IC50

Examples with their reported IC50 follow.
{"structure string": "Cc1ccccc1-c1cccc(N(C(N)=O)c2c(Cl)cccc2Cl)n1", "result": "≥ 500 nM"}
{"structure string": "CC(C)(C)OC(=O)Nc1ccccc1SC1=NN2CNC(=O)C(c3c(Cl)cccc3Cl)=C2C=C1", "result": "≥ 500 nM"}
{"structure string": "O=C1NCN2N=C(Sc3ccc(F)cc3Cl)C=CC2=C1c1c(Cl)cccc1Cl", "result": "250 to 500 nM"}
{"structure string": "Nc1ccc(F)cc1SC1=NN2CNC(=O)C(c3c(Cl)cccc3Cl)=C2C=C1", "result": "≥ 500 nM"}

Switching to the query record.
QUERY: Give IC50; test system IL-1 production in whole blood; compound O=c1ncn2nc(Sc3ccccc3O)ccc2c1-c1c(Cl)cccc1Cl
RESULT: ≥ 500 nM
